Let's go through some AC50 measurements on Cytochrome P450 2C9 (Homo sapiens, UniProt P11712) together.
Sequence (P11712 whole entry): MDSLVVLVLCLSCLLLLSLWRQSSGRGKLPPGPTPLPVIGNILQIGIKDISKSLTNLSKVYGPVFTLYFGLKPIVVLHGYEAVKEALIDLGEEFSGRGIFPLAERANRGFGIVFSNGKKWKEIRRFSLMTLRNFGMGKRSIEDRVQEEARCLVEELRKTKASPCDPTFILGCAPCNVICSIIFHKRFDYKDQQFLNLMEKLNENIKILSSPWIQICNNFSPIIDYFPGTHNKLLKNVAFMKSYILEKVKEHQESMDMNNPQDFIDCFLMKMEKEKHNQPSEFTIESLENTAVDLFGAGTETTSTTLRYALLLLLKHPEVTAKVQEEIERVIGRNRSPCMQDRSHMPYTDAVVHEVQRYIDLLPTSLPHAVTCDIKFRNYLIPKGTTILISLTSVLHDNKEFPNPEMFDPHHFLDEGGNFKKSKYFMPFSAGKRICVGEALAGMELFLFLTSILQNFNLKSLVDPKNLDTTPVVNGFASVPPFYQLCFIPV
MEASURE: AC50

COMPOUND	EXPERIMENTAL SYSTEM	ASSAY VALUE
Oc1ccc2ccccc2c1CN(Cc1c(O)ccc2ccccc12)C1CCCCC1	Cytochrome P450 2C9 (Homo sapiens, UniProt P11712)	7.94 µM (inconclusive)
COc1ccc(-n2nc(C(=O)NCC(=O)Nc3ccccn3)c3ccccc3c2=O)cc1	Cytochrome P450 2C9 (Homo sapiens, UniProt P11712)	1.41 µM (inconclusive)
Nc1nc(OCc2ccccc2)c2[nH]cnc2n1 [6-O-BENZYLGUANINE]	Cytochrome P450 2C9 (Homo sapiens, UniProt P11712)	39.8 µM (inconclusive)
COc1ccc(C2SCC(=O)Nc3c2c(C)nn3C2CCOC(C)(C)C2)cc1 (stereo not given)	Cytochrome P450 2C9 (Homo sapiens, UniProt P11712)	25.1 µM (inconclusive)
CC(=O)Nc1nc2ccccc2n1Cc1ccccc1	Cytochrome P450 2C9 (Homo sapiens, UniProt P11712)	35.5 µM (inconclusive)

---

- EXPERIMENTAL SYSTEM: Protein skinhead-1 (Caenorhabditis elegans, UniProt P34707)
- Sequence (P34707 whole entry): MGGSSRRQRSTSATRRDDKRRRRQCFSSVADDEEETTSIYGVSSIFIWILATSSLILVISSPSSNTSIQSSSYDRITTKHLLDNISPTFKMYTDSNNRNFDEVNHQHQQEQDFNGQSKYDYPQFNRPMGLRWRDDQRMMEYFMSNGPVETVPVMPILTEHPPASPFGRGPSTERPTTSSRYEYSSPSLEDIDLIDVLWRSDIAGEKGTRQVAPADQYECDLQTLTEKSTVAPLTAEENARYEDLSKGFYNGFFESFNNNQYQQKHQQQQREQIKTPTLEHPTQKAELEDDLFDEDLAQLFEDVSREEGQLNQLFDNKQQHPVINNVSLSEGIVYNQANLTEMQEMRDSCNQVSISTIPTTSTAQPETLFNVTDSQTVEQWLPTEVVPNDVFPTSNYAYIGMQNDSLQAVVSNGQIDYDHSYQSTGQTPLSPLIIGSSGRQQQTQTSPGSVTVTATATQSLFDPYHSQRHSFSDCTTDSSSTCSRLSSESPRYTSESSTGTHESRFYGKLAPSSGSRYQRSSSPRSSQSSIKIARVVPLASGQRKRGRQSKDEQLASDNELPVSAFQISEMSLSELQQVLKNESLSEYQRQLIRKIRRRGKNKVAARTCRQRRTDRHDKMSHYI
- Type: functional
Calls of active or inactive are those of the source.
Classes used: 1 (yes) for active, 0 (no) for inactive

MOLECULE	ASSIGNED CLASS
COc1ccc(N2CCN(C(=O)c3cc4c(-c5cccc(OC)c5)nn(C)c4s3)CC2)cc1	0 (no)
Fc1ccc(CSc2nnc(-c3cccs3)o2)cc1	1 (yes)
Cc1ccc(S/C=C\C(=O)c2ccccc2)cc1	1 (yes)
Cc1ccc(S(=O)(=O)N2C[C@H]3[C@H]4C(=O)N(c5ccccc5)C(=O)[C@H]4CC(=O)[C@H]3[C@@H]2c2cccc3ccccc23)cc1	0 (no)
CCOC(=O)C(Oc1ccc2c(-c3ccc(OC)cc3)cc(=O)oc2c1C)c1ccccc1 (stereo unspecified)	0 (no)
c1ccc2nc(-c3ccc(-n4ccnc4)cc3)ccc2c1	1 (yes)

---

- EXPERIMENTAL SYSTEM: Cytochrome P450 3A4 (Homo sapiens, UniProt P08684);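 further: confirmatory qHTS run detecting inhibitors and substrates of CYP3A4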
- Sequence (P08684 whole entry): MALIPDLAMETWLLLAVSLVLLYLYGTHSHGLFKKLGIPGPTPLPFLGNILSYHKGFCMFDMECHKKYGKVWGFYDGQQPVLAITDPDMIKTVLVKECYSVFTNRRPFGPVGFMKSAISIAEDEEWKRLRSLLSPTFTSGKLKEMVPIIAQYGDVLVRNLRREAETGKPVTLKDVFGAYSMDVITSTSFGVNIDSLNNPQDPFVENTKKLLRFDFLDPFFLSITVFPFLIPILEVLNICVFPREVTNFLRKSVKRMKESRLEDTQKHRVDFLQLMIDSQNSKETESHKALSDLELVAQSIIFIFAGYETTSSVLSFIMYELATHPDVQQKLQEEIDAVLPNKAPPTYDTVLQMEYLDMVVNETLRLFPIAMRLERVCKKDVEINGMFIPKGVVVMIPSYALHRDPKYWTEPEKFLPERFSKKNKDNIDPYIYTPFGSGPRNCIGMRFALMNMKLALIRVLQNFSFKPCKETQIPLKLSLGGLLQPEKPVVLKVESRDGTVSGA
- EXPERIMENTAL PARAMETERS: Potency
Measured AC50, listed per entry.

COMPOUND	EXPERIMENTAL SYSTEM	AC50
CCCn1c(-c2ccc(F)cc2)nc2c(NCCCN(CCO)CCO)nc(C)nc21	Cytochrome P450 3A4 (Homo sapiens, UniProt P08684)	15.8 µM (inconclusive)
OC1c2ccccc2-c2nc3ccccc3cc21 (centres undefined)	Cytochrome P450 3A4 (Homo sapiens, UniProt P08684)	25.1 µM (inconclusive)
CCCc1nc(C(C)(C)O)c(C(=O)OCc2oc(=O)oc2C)n1Cc1ccc(-c2ccccc2-c2nnn[nH]2)cc1 [OLMESARTAN MEDOXOMIL]	Cytochrome P450 3A4 (Homo sapiens, UniProt P08684)	25.1 µM (inconclusive)
FC(F)(F)c1ccc(CN2C[C@@H]3C(c4ccc(C(F)(F)F)cc4)C4(c5cccnc5)CC3(C4)[C@H]2c2ccccc2)cc1 (some centres undefined)	Cytochrome P450 3A4 (Homo sapiens, UniProt P08684)	31.6 µM (inconclusive)

---

- EXPERIMENTAL SYSTEM: Corticotropin-releasing factor receptor 2/Corticotropin-releasing factor-binding protein (Homo sapiens, UniProt P24387+Q13324)
- Sequence (Q13324 whole entry): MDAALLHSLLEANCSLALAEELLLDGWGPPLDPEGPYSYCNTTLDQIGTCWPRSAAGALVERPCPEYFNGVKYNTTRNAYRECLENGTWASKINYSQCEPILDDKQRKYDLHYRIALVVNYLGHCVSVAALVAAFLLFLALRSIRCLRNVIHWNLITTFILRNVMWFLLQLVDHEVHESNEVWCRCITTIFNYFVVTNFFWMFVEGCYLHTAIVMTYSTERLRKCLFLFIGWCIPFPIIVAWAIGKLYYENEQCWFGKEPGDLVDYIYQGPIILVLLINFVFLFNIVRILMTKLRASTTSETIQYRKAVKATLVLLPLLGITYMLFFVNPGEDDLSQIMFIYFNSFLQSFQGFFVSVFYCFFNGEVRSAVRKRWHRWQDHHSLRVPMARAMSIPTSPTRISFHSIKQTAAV
- Sequence (P24387 whole entry): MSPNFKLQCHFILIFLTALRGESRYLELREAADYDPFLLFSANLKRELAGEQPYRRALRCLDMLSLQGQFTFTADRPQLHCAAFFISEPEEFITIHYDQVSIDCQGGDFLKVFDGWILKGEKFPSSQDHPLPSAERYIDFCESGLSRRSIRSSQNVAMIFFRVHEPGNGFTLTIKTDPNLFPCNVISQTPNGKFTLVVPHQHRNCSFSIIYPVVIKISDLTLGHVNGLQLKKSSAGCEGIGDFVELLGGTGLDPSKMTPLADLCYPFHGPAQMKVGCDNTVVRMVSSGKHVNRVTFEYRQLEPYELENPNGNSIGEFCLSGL
- PROTOCOL NOTES: Dose Response confirmation of uHTS hits for small molecule antagonists of the CRF-binding protein and CRF-R2 receptor complex.
- Format: functional
- EXPERIMENTAL PARAMETERS: read-out: IC50_Mean
Where a name gives a salt, the structure may show the parent alone. Active and inactive are the calls of the source.
Classes used: yes for active, no for inactive

MOLECULE	ASSIGNED CLASS
CCCn1c(C(C)NS(=O)(=O)c2ccccc2)n[nH]c1=S (centres undefined)	no
CCN1C(c2ccccc2)C(C)C(=O)C(C)C1c1ccccc1 (centres undefined)	no
C=Cn1cc[n+](CC(=O)c2ccc(Cl)cc2)c1	no
COc1ccc(/C=C/c2c([N+](=O)[O-])c(=O)n(C)c(=O)n2C)cc1O	no
O=C(CSCC(=O)Nc1cccc([N+](=O)[O-])c1)Nc1ccccc1	no
CCOC(=O)c1c(CC(C)C)csc1N	no
COC(=O)CCCC1=CC2=C(c3ccccc3)C(=O)C(C)(OC(=O)C3CCCC3)C(=O)C2=CN1CCc1ccccn1 (centres undefined)	no
CCCCCCCCCSc1nnc(N)[nH]1	no
CC(C)Cn1c(SCC(=O)N2CCc3ccccc3C2)nc2cc(Cl)ccc2c1=O	yes
CCCCc1nc2ccccc2c(NC(=O)CN(CC)CC)c1CCC	no
O=C(O)c1cnc(-c2ccccc2)nc1Sc1ccc(Cl)cc1Cl	yes
O=C(C1CC(=O)N(c2ccc(Br)cc2)C1)N1CCCC1 (centres undefined)	no
C=C(C)Cn1c(=O)c2c(nc3n2CC(C)CN3Cc2ccccc2)n(C)c1=O (centres undefined)	no
c1ccc(C2CN3CCSC3=N2)cc1 (centres undefined) [TETRAMISOLE HYDROCHLORIDE]	no
